Would you kindly list IC50 for each of these molecules?
- experimental system: AgrA (Staphylococcus aureus)
- Construct: endogenous in cells; host or cells: S. aureus USA300 strain UAMS-1625 carrying a P3-lacZ reporter plasmid
- test description: cell-based
- Parameters: species or system S. aureus
- experimental parameters: IC50 at 40 mg/mL HSA, LB medium supplemented with human serum albumin 40 mg/mL

smiles string: CSCCNC(=O)CN1CCN(c2ccc3c(=O)[nH]c4c(S(=O)(=O)c5ccc(C)cc5C)nnn4c3c2)CC1
IC50: 17.6 to 87.8 µM

smiles string: Cc1ccc(S(=O)(=O)c2nnn3c2[nH]c(=O)c2ccc(N4CCN(CC(=O)N5CCC(F)(F)CC5)CC4)cc23)c(C)c1
IC50: 16.7 to 83.4 µM

Need IC50 for each of these molecules.
1. Cc1ccc(S(=O)(=O)c2nnn3c2[nH]c(=O)c2ccc(N4CCN(CC(=O)N5CCC(N(C)C)CC5)CC4)cc23)c(C)c1
2. Cc1ccc(S(=O)(=O)c2nnn3c2[nH]c(=O)c2ccc(N4CCN(CC(=O)NCC5CC5)CC4)cc23)c(C)c1

< 16.5 µM
18.2 to 91 µM

====

- experimental system: AgrA (Staphylococcus aureus, UniProt P0A0I7)
- Construct: endogenous in cells; host or cells: S. aureus USA300 strain UAMS-1625 carrying a P3-lacZ reporter plasmid
- Sequence (P0A0I7 whole entry): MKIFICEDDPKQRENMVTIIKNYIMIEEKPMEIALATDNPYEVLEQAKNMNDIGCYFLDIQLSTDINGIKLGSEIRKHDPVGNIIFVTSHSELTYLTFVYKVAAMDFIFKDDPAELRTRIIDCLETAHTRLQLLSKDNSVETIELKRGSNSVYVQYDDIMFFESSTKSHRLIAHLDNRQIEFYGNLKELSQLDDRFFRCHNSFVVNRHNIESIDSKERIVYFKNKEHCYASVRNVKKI
- test description: cell-based
- Design: species or system S. aureus
- experimental parameters: IC50 at 40 mg/mL HSA, LB medium supplemented with human serum albumin 40 mg/mL
- Experimental: The inventive compounds are 3-(phenylsulfonyl)-[1,2,3]triazolo[1,5a]quinazolin-5(4h)-one derivatives comprising an N-bound piperazine or homopiperazine at the 8-position of the [1,2,3]triazolo[1,5a]quinazolin-5(4h)-one core, further substituted (on the second nitrogen atom) by an (optionally substituted) acetyl or propionyl amide group. […] The β-galactosidase produced by expression of lacZ cleaved the MUG into galactopyranose and 4-methylumbelliferone, which was measured by fluorescence. […]
pIC50: −log10 of the molar value.
Would you kindly list pIC50 for each of these molecules?

molecule: Cc1ccc(S(=O)(=O)c2nnn3c2[nH]c(=O)c2ccc(N4CCN(CC(=O)NC5CCCNC5)CC4)cc23)c(C)c1 (stereo not shown)
experimental system: AgrA (Staphylococcus aureus, UniProt P0A0I7)
result: > 4.76

Need pIC50 for each of these molecules.
1. Cc1ccc(S(=O)(=O)c2nnn3c2[nH]c(=O)c2ccc(N4CCCN(CC(=O)NC5CCCC5)CC4)cc23)c(C)c1
2. Cc1ccc(S(=O)(=O)c2nnn3c2[nH]c(=O)c2ccc(N4CCN(CC(=O)NC5CCC5)CC4)cc23)c(C)c1

["4.06 to 4.76", "4.04 to 4.74"]

====

- experimental system: AgrA (Staphylococcus aureus)
- Construct: endogenous in cells; host or cells: S. aureus USA300 strain UAMS-1625 carrying a P3-lacZ reporter plasmid
- test description: cell-based
- Parameters: species or system S. aureus
- experimental parameters: IC50 without HSA, LB medium, no human serum albumin, 18 hours incubation
endpoint name: IC50

Before answering, review these 5 worked examples.
smiles string: Cc1ccc(S(=O)(=O)c2nnn3c2[nH]c(=O)c2ccc(N4CCN(CC(=O)N5CCC(N)CC5)CC4)cc23)c(C)c1
IC50: 1730 to 8640 nM

smiles string: Cc1ccc(S(=O)(=O)c2nnn3c2[nH]c(=O)c2ccc(N4CCN(CC(=O)NCCc5ccncc5)CC4)cc23)c(C)c1
IC50: < 1660 nM

smiles string: Cc1ccc(S(=O)(=O)c2nnn3c2[nH]c(=O)c2ccc(N4CCN(CC(=O)NCc5cccnc5)CC4)cc23)c(C)c1
IC50: < 1700 nM

smiles string: Cc1ccc(S(=O)(=O)c2nnn3c2[nH]c(=O)c2ccc(N4CCN(CC(=O)NCC5CCCCC5)CC4)cc23)c(C)c1
IC50: < 1690 nM

smiles string: Cc1ccc(S(=O)(=O)c2nnn3c2[nH]c(=O)c2ccc(N4CCN(CC(=O)NCCn5ccnc5)CC4)cc23)c(C)c1
IC50: 1700 to 8480 nM

Need IC50 for each of these compounds.
1. Cc1ccc(S(=O)(=O)c2nnn3c2[nH]c(=O)c2ccc(N4CCCN(CC(=O)NCc5ccccc5)CC4)cc23)c(C)c1
2. COCCCNC(=O)CN1CCN(c2ccc3c(=O)[nH]c4c(S(=O)(=O)c5ccc(C)cc5C)nnn4c3c2)CC1

["< 1670 nM", "< 1760 nM"]
